# RUN_DESCRIPTION: S. cerevisiae growth modulation with rapamycin, primary screen, strain BY4716, OD600, 96 h (AID 1091); note: test concentration not given here
# SETTINGS: higher = more signal, called active from +8 up or from −8 down
REPORTED_ENDPOINT: z-score
Please give the numeric answer without any surrounding text.

Known results for compounds:
INSERT INTO assay_data (compound, quantitative_result) VALUES
  ('C=CCC(OC(C)=O)[C@@H]1[C@@H](N(Cc2ccc(-c3ccccc3)cc2)C(=O)c2ccc(C)cc2)c2cc(OCCCO)ccc2N1C(=O)c1ccc2ccccc2c1 (some centres not stated)', -0.693),
  ('O=C1c2ccccc2[C@](Cc2ccccc2I)(C(=O)O)[C@H](c2ccc(CO)cc2)N1Cc1ccccc1', -1.22),
  ('O=C(NCC(F)(F)F)[C@@H]1c2ccccc2C(=O)N(CC23CC4CC(CC(C4)C2)C3)[C@H]1c1ccc(CO)cc1', -1.47),
  ('COC(=O)[C@]1(CO)N=C(c2ccc(OCCCO)cc2)O[C@@H]1c1ccccc1CN=[N+]=[N-]', 1.85),
  ('COCCOC(=O)N1C(=O)[C@@]2(c3cc(C#CCCO)ccc31)[C@H](c1ccc(O)cc1)N1[C@H](c3ccccc3)[C@H](c3ccccc3)OC(=O)[C@H]1[C@@H]2C(=O)N1CCc2cc(OC)c(OC)cc2C1', 1.23),
  ('COCCOC(=O)N1C(=O)[C@@]2(c3cc(C#CC4=CCCCC4)ccc31)[C@H](c1ccc(OCCO)cc1)N1[C@H](c3ccccc3)[C@H](c3ccccc3)OC(=O)[C@H]1[C@@H]2C(=O)N1CCCCCCC1', 1.89);

Moving on to the next compound.
Find the recorded z-score belonging to CN(C)CCCCNC(=O)[C@H]1C[C@H]2C(=O)NCC(=O)N2[C@H]1c1cccc(OCCO)c1 and report it.
-0.431

* * *

# Tested on: Lefty1
# RUN_DESCRIPTION: Lefty1 binders on small-molecule microarrays, primary screen, biochemical, small-molecule microarray, 635/667 nm fluorescence (AID 1139)
# SETTINGS: small-molecule microarray binding, fluorescence 635/667; higher = more signal
REPORTED_ENDPOINT: composite z-score

INSERT INTO assay_data (compound, target_under_test, result) VALUES
  ('CO[C@H]1O[C@H](CO)[C@@H](OC(=O)Nc2ccc(C(F)(F)F)cc2)[C@H](OC(=O)Nc2ccccc2-c2ccccc2)[C@@H]1OC(=O)Nc1ccccc1-c1ccccc1', 'Lefty1', 1.08),
  ('CC(=O)NCCCC[C@@H]1NC(=O)[C@@H]2C[C@H](C(=O)NCCCCCC[N+](C)(C)C)[C@H](c3ccc(O)cc3)N2C1=O', 'Lefty1', 0.907),
  ('COC(=O)[C@@]1(Cc2ccc(F)cc2)[C@H]2c3cc(C(=O)N(C)C)n(CCn4cc([N+](=O)[O-])nc4C)c3C[C@H]2CN1C(=O)c1ccccc1', 'Lefty1', -1.07),
  ('COc1ccc(C(O)C2C=CC3C(=O)N(C)C(=O)C3N2Nc2ccc([N+](=O)[O-])cc2[N+](=O)[O-])cc1OCc1ccccc1 (stereo unspecified)', 'Lefty1', 0.0695),
  ('C[N+](C)(C)CCCCCCNC(=O)[C@H]1C[C@H]2C(=O)NCC(=O)N2[C@H]1c1cccc(OCCO)c1', 'Lefty1', 1.6);

Moving on to the next compound.
Find the recorded composite z-score belonging to CCOC(=O)C[C@H]1[C@H](OC(=O)c2cc3ccccc3oc2=O)[C@@H](NC(=O)C2CCCCC2)c2cc(OCCCO)ccc2N1C(=O)Cc1ccc(OC)cc1 and report it.
0.646

* * *

# RUN_DESCRIPTION: E. coli acrAB mutant growth effects, primary screen, E. coli filamentation inducers, strain DRC39, OD650, 24 h (AID 1178);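 note: growth measured as culture turbidity by optical density at 650 nm; test concentration not given here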
# SETTINGS: higher = more signal, called active from +8 up or from −8 down
Answer 0 if z-score is under 0.04, and 1 if it is 0.04 or more.

Given NC(=O)NCC#Cc1ccc2c(c1)[C@]1(C(=O)N2)[C@H](C(=O)N2CCCCCCC2)[C@H]2C(=O)O[C@H](c3ccccc3)[C@H](c3ccccc3)N2[C@@H]1c1ccc(O)cc1 , state whether its z-score is at least 0.04.
1

* * *

Attribute: z-score
# RUN_DESCRIPTION: S. cerevisiae growth modulation with rapamycin, primary screen, strain BY4716, OD600, 96 h (AID 1091); note: test concentration not given here
# SETTINGS: higher = more signal, called active from +8 up or from −8 down
Please give the numeric answer without any surrounding text.

INSERT INTO assay_data (molecule, quantitative_result) VALUES
  ('NCCCC[C@@H]1NC(=O)[C@H]2C[C@@H](C(=O)O)[C@@H](c3cccc(OCCO)c3)N2C1=O', -0.503),
  ('CCN(CC)c1ccc(N2CC=CC34O[C@@H]5C=CCOC(=O)[C@@H]5[C@H]3C(=O)N(CCO)[C@@H]4C2=O)cc1 (stereo not given in full)', -0.108);

Find the recorded z-score belonging to CCCC[C@H]1OB(O)C[C@H]2C1=C(COC)C[C@H]1C(=O)C=CC(=O)[C@H]12 and report it.
-0.293

Repeat for the following molecule: COCCOC(=O)N1C(=O)[C@@]2(c3cc(C#CC4(O)CCCCCC4)ccc31)[C@H](c1ccc(OCCO)cc1)N1[C@H](c3ccccc3)[C@H](c3ccccc3)OC(=O)[C@H]1[C@@H]2C(=O)N1CCCCCCC1
3.68

Repeat for the following molecule: NC(=O)[C@@]1(CCS(=O)(=O)c2ccccc2)COC(c2ccc(OCCCO)cc2)=N1
0.0084

* * *

# RUN_DESCRIPTION: A549 cell viability effects, profiling panel, calcein-AM fluorescence, 48 h, basal (AID 1162); note: test concentration not given here
# SETTINGS: higher = more signal
Answer rule not met if z-score is under -0.2, and rule met if it is -0.2 or more.

INSERT INTO assay_data (molecule, category) VALUES
  ('O=C1OCCC/C=C\[C@H]2OC34C=CCN(Cc5ccccc5)C(=O)[C@H]3N(CCCCCO)C(=O)[C@@H]4C12 (some centres undefined)', 'rule met'),
  ('CC1CC/C=C\[C@H]2OC34C=CCN(c5ccc(Cl)cc5)C(=O)[C@H]3N(CCCO)C(=O)[C@]4(C)C2C(=O)O1 (some centres undefined)', 'rule met'),
  ('C=CC[C@@]1(C(=O)O)N=C(c2ccc(OCCCO)cc2)O[C@@H]1c1ccccc1CN=[N+]=[N-]', 'rule not met'),
  ('C=CCC(OC(C)=O)[C@@H]1[C@@H](N(Cc2cc3ccccc3o2)C(=O)c2cccc3ccccc23)c2cc(OCCCO)ccc2N1C(=O)c1ccc2ccccc2c1 (some centres undefined)', 'rule met'),
  ('CCOC(=O)C1=CC[C@@H](c2ccccc2)N(S(=O)(=O)C[Si](C)(C)C)[C@H]1c1ccccc1', 'rule not met'),
  ('C=CC[C@@]12N=C(c3ccc(OCCCO)cc3)O[C@@H]1c1ccccc1N(Cc1ccccc1)C2=O', 'rule not met');

--- query ---
Given C=C(COC)C(=O)CC[C@@H](OC(C)=O)c1ccc(OCCO)cc1 , state whether its z-score is at least -0.2.
rule met

* * *

Attribute: composite z-score
# System: glycogen synthase kinase-3 (GSK3A per assay name; protocol says GSK3B)
# RUN_DESCRIPTION: GSK3 binders on small-molecule microarrays, primary screen, biochemical, small-molecule microarray, 635 nm fluorescence, GSK3A (AID 1103); note: the record names both GSK3A and GSK3B
# SETTINGS: small-molecule microarray binding, fluorescence 635 nm; higher = more signal

Known results for molecules:
INSERT INTO results (molecule, target_under_test, result) VALUES
  ('COCCOC(=O)N1C(=O)[C@@]2(c3cc(C#CC4=CCCCC4)ccc31)[C@H](c1ccc(OCCO)cc1)N1[C@H](c3ccccc3)[C@H](c3ccccc3)OC(=O)[C@H]1[C@@H]2C(=O)N1CCCCCCC1', 'glycogen synthase kinase-3 (GSK3A per assay name; protocol says GSK3B)', 1.33),
  ('CC(C)C[C@@H]1NC(=O)[C@@H]2C[C@H](C(=O)NCCCC[N+](C)(C)C)[C@H](c3ccc(O)cc3)N2C1=O', 'glycogen synthase kinase-3 (GSK3A per assay name; protocol says GSK3B)', 0.896),
  ('O=C1OCCC/C=C\[C@H]2OC34C=CCN(Cc5ccccc5)C(=O)[C@H]3N(CCCCCO)C(=O)[C@@H]4C12 (stereo partly drawn)', 'glycogen synthase kinase-3 (GSK3A per assay name; protocol says GSK3B)', -0.823),
  ('C=C(COC)/C(=C/C[C@H](OC(=O)c1ccncc1)c1ccc(OCCO)cc1)c1cc(C(=O)OC)ccc1OC', 'glycogen synthase kinase-3 (GSK3A per assay name; protocol says GSK3B)', 0.32),
  ('CC(C)(C)OC(=O)CC[C@]1(C(N)=O)N=C(c2ccc(OCCCO)cc2)O[C@H]1c1ccccc1CN=[N+]=[N-]', 'glycogen synthase kinase-3 (GSK3A per assay name; protocol says GSK3B)', 1.28);

Moving on to the next molecule.
Item CCC[C@@H]1C=C(C(=O)OCC)[C@H](c2ccccc2)N1S(=O)(=O)c1ccc(C)cc1 with glycogen synthase kinase-3 (GSK3A per assay name; protocol says GSK3B) - composite z-score?
1.32
